Data provenance is patent US20030059769.

Target: P-selectin (PS-Rg) (Homo sapiens, UniProt P16109 P16109:42-321)
Sequence (P16109 42-321, one chain of several): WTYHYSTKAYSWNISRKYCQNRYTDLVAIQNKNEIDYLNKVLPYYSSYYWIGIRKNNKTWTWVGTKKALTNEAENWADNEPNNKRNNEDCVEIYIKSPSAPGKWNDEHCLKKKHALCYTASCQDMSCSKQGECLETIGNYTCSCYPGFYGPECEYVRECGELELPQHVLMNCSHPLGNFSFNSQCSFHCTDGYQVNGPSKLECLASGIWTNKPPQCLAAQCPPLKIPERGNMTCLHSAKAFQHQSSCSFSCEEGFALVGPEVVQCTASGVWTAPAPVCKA
Assay: filter; 37 C
Details: tags: human IgG1 Fc fusion; chain copies: dimer; label: 32P
List of Kd values.

- Binder: "PA477 (ssRNA, 2'-NH2 on all C and U [2'-NH2 on all C and U; n18 in fixed region = G]) RNA: GGGAGACAAGAAUAAACGCUCAAGCCCCAAACGCAAGUGAGCAUCCGCAACAGGGAAGAAGACAGACGAAUGAUUCGACAGGAGGCUCACAACAGGC"
  Kd [nM]: 0.57
- Binder: "PA341 (ssRNA, 2'-NH2 on all C and U) RNA: GGGAGACAAGAAUAAACGCUCAAGCCCCAAACGCAAGCGAGCAUCCGCAACAGGGAAGAAGACAGACGAAUGAUUCGACAGGAGGCUCACAACAGGC"
  Kd [nM]: 0.44
- Binder: "PA328 (ssRNA, 2'-NH2 on all C and U [2'-NH2 on all C and U; N83 in fixed region = A]) RNA: GGGAGACAAGAAUAAACGCUCAAGCAAAAGGCGUAAAUACACCUCCGCAACUGGGAAGAAGACGCAGGGACGGUUCGACAGGAGGCUCACAACAGGC"
  Kd [nM]: 3
- Binder: "PA330 (ssRNA, 2'-NH2 on all C and U) RNA: GGGAGACAAGAAUAAACGCUCAAAACGCACAAAGUAAGGGACGGGAUGGAUCGCCCUAGGCUGGAAGGGAACUUCGACAGGAGGCUCACAACAGGC"
  Kd [nM]: 0.237
- Binder: "PA338 (ssRNA, 2'-NH2 on all C and U) RNA: GGGAGACAAGAAUAAACGCUCAAUCAAGUAAGGAGGAAGGGUCGUGACAGAAAAACGAGCAAAAAACGCGAGUUCGACAGGAGGCUCACAACAGGC"
  Kd [nM]: 57
- Binder: "PA337 (ssRNA, 2'-NH2 on all C and U) RNA: GGGAGACAAGAAUAAACGCUCAAACAGCUACAAGUGGGACAACAGGGUACAGCGGAGAGAAACAUCCAAACAAGUUCGACAGGAGGCUCACAACAGGC"
  Kd [nM]: 4.5
